# tested on: human FOLR1 on cells (Hela, RPTEC/TERT1, OVCAR3, OV90, IGROV-1, JEG-3, KB, NCI-H441) (human, UniProt P15328 25-234)
# Sequence (P15328 25-234): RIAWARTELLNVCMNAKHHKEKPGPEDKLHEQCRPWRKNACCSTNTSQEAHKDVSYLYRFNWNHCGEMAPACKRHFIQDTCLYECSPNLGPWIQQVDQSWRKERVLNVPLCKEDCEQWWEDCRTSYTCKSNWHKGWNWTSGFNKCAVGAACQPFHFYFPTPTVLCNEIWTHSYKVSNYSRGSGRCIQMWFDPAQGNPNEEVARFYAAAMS
# measurement description: cell-based or functional assay
Reported Internalization ratio (%), Hela, 24 h values for a set of binders
observed property: Internalization ratio (%), Hela, 24 h

binder | observed property | recorded number
F131-ADC (antibody F131 conjugated to mc-VC-PAB-MMAE) (antibody, V domains shown, mc-VC-PAB-MMAE on cysteine thiols after TCEP reduction (positions not stated; DAR within 3~4), Antibody-drug conjugate; also called F131 immunoconjugate) VH: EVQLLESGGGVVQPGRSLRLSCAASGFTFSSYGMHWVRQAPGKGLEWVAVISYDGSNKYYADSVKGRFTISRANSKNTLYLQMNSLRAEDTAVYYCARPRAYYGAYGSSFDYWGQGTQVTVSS VL: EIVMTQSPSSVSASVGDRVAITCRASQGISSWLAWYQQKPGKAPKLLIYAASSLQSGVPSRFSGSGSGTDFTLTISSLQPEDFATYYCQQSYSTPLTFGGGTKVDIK | Internalization ratio (%), Hela, 24 h | 74.8
F8-ADC (antibody F8 conjugated to mc-VC-PAB-MMAE) (antibody, V domains shown, mc-VC-PAB-MMAE on cysteine thiols after TCEP reduction (positions not stated; DAR within 3~4), Antibody-drug conjugate; also called F8 immunoconjugate) VH: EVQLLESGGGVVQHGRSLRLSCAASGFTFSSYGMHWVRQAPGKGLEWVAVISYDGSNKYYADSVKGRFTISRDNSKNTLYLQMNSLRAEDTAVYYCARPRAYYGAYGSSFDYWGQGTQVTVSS VL: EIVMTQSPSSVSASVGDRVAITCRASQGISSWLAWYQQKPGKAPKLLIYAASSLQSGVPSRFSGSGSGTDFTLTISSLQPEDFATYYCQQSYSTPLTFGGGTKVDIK | Internalization ratio (%), Hela, 24 h | 73.1
FR107-ADC (reference antibody mirvetuximab huFR107 conjugated to mc-VC-PAB-MMAE) (antibody, V domains shown, mc-VC-PAB-MMAE on cysteine thiols after TCEP reduction (positions not stated; DAR within 3~4), Control conjugate) VH: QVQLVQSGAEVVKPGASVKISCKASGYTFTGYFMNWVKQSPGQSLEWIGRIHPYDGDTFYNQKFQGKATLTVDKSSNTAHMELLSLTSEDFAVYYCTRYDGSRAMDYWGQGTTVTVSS VL: DIVLTQSPLSLAVSLGQPAIISCKASQSVSFAGTSLMHWYHQKPGQQPRLLIYRASNLEAGVPDRFSGSGSKTDFTLTISPVEAEDAATYYCQQSREYPYTFGGGTKLEIK | Internalization ratio (%), Hela, 24 h | 75.1
F26-ADC (antibody F26 conjugated to mc-VC-PAB-MMAE) (antibody, V domains shown, mc-VC-PAB-MMAE on cysteine thiols after TCEP reduction (positions not stated; DAR within 3~4), Antibody-drug conjugate; also called F26 immunoconjugate) VH: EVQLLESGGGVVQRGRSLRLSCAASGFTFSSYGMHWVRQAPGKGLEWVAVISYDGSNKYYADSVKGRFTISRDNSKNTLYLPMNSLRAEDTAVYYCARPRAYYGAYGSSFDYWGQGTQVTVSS VL: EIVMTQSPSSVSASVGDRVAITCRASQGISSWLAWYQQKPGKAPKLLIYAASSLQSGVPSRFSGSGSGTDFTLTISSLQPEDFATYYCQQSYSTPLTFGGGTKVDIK | Internalization ratio (%), Hela, 24 h | 75.5
